Sourced from ChEMBL document CHEMBL2176995

# TARGET_OF_ASSAY: Sphingosine 1-phosphate receptor 3 (Homo sapiens)
# Sequence (Q99500 whole entry): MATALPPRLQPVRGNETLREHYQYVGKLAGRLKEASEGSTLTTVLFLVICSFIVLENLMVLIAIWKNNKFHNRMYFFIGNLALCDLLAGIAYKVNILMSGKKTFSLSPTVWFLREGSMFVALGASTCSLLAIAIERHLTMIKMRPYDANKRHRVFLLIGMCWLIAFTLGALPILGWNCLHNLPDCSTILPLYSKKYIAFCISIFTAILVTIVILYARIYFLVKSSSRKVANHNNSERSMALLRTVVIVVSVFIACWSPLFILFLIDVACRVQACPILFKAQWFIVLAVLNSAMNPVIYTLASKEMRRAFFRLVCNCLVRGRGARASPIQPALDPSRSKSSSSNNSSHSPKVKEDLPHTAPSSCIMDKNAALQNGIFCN
# METHOD_SUMMARY: Antagonist activity at human S1P3R receptor expressed in CHO cell membranes by [35S]GTPgamma binding assay
MEASUREMENT_LABEL: pIC50
One number for each entry, as −log10 of the molar value.

molecule "Cc1cc(S(=O)(=O)Nc2cccc(-c3cc(C)c(C(=O)N(C)[C@@H](CCN(C)C)C(=O)O)c(C)c3)c2)c(C)cc1Cl" , pIC50 observed: 6.10
